Known selective drug sensitivity score of a selection of molecules
- System: COG-LL-332h
- PROCEDURE SUMMARY: selective drug sensitivity score (sDSS, relative to normal bone marrow) (sDSS (score)); higher = more potent and effective on the cell line relative to normal bone marrow cells;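 note: ALL cell lines in 384-well plates, five doses spanning 10,000-fold, each plate scaled between vehicle and 100 µmol/L benzalkonium chloride controls, sDSS an adapted area-under-curve metric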
- DETAILS: 72 h

CN1CCc2c(c3ccccc3n2Cc2ccc(C(=O)NO)cc2)C1 [Tubastatin_A] (top concentration 10000 nM)	1.46

Would you kindly share the measured selective drug sensitivity score for CCCN(CCC)C(=O)C1=Cc2ccc(-c3ccc(C(=O)N4CCCC4)cc3)cc2N=C(N)C1 [Motolimod] (top concentration 10000 nM) ?
-3.18

GET /values?readout=selective drug sensitivity score&item= Cn1ncc(Cl)c1-c1cc(C(=O)N[C@H](CN)Cc2cccc(F)c2)sc1Cl [Afuresertib] (top concentration 1000 nM)
2.86

----------
- System: KOPN-8
- PROCEDURE SUMMARY: selective drug sensitivity score (sDSS, relative to normal bone marrow) (sDSS (score)); higher = more potent and effective on the cell line relative to normal bone marrow cells
- DETAILS: 72 h
The threshold is inclusive: selective drug sensitivity score of exactly 3 counts as Fulfilled; values below receive Not fulfilled.

Some solved cases for reference:
Cc1cc2c(C(C)C)c(O)c(O)c(C=O)c2c(O)c1-c1c(C)cc2c(C(C)C)c(O)c(O)c(C=O)c2c1O [AT-101] (top concentration 100000 nM)	Fulfilled
O=C1CN2Cc3c(ccc(Cl)c3Cl)N=C2N1 [Anagrelide] (top concentration 10000 nM)	Fulfilled
Cn1nnc2c(C(N)=O)ncn2c1=O [Temozolomide] (top concentration 100000 nM)	Not fulfilled
CC(C)C[C@H](NC(=O)CNC(=O)c1cc(Cl)ccc1Cl)B(O)O [Ixazomib] (top concentration 1000 nM)	Fulfilled
CC(C)(C)c1cnc(CSc2cnc(NC(=O)C3CCNCC3)s2)o1 [SNS-032] (top concentration 10000 nM)	Not fulfilled

API: above_or_equal(metric=selective drug sensitivity score, cutoff=3) for item Oc1ccc2c(c1)CC[C@H](c1ccccc1)[C@@H]2c1ccc(OCCN2CCCC2)cc1 [Lasofoxifene] (top concentration 1000 nM)
Not fulfilled

Please tell me: is the molecule CCOCc1nc2c(N)nc3ccccc3c2n1CC(C)(C)O [Resiquimod] (top concentration 10000 nM) at or over 3 in terms of selective drug sensitivity score?
Not fulfilled

Record Cc1c(F)cc(C(=O)NC2CC2)cc1-c1ccc(C(=O)NCC(C)(C)C)cn1 [Losmapimod] (top concentration 10000 nM) ; criterion: selective drug sensitivity score no lower than 3. Met?
Fulfilled

Is the recorded value of selective drug sensitivity score equal to or greater than 3 for this molecule? O=C(CCCCCCC(=O)Nc1ccc([C@H]2O[C@@H](CSc3nc(-c4ccccc4)c(-c4ccccc4)o3)C[C@@H](c3ccc(CO)cc3)O2)cc1)NO [Tubacin] (top concentration 10000 nM)
Fulfilled

Would you say Cc1cc(-c2nc(-c3ccc(OC(F)(F)F)cc3)no2)nn1Cc1ccnc(N2CCN(C3CC3)CC2)c1 [BAY_87-2243] (top concentration 1000 nM) shows selective drug sensitivity score at minimum 3?
Fulfilled

Determine whether measured selective drug sensitivity score meets or exceeds 3 for CC(C)(O)CC(=O)NCCn1ccc2ncnc(Nc3ccc(Oc4cccc(C(F)(F)F)c4)c(Cl)c3)c21 [TAK-285] (top concentration 2500 nM)
Not fulfilled

Identify whether the reported selective drug sensitivity score of the following molecule is 3 or greater: CNCc1ccc(-c2[nH]c3cc(F)cc4c3c2CCNC4=O)cc1 [Rucaparib] (top concentration 10000 nM)
Fulfilled

Would you say C=CC(=O)N1CCC(Oc2cc3c(Nc4ccc(Cl)c(Cl)c4F)ncnc3cc2OC)CC1 [Poziotinib] (top concentration 1000 nM) shows selective drug sensitivity score at minimum 3?
Not fulfilled

For this molecule, is measured selective drug sensitivity score 3 or higher? COc1cccc2c1C(=O)c1c(O)c3c(c(O)c1C2=O)C[C@@](O)(C(C)=O)C[C@@H]3O[C@H]1C[C@H](N)[C@H](O)[C@H](C)O1 [Daunorubicin] (top concentration 1000 nM)
Fulfilled

Does selective drug sensitivity score meet or surpass 3 for CN1CCC(COc2cnc(-c3cccc(Cn4nc(-c5cccc(C#N)c5)ccc4=O)c3)nc2)CC1 [Tepotinib] (top concentration 1000 nM) ?
Not fulfilled

Check the entry CC1CCC(n2c3cnccc3c3cnc(Nc4ccc5c(n4)CCN(C(=O)CO)C5)nc32)CC1 (centres undefined) [AMG-925] (top concentration 1000 nM) : does selective drug sensitivity score equal or exceed 3?
Fulfilled

Exam item: decide whether the reported selective drug sensitivity score for CO[C@H]1C[C@@H]2CC[C@@H](C)[C@@](O)(O2)C(=O)C(=O)N2CCCC[C@H]2C(=O)O[C@H]([C@H](C)C[C@@H]2CC[C@@H](OP(C)(C)=O)[C@H](OC)C2)CC(=O)[C@H](C)/C=C(\C)[C@@H](O)[C@@H](OC)C(=O)[C@H](C)C[C@H](C)/C=C/C=C/C=C/1C [Ridaforolimus] (top concentration 100 nM) is at least 3.
Fulfilled

Quick check, selective drug sensitivity score >= 3? Sc1ncnc2nc[nH]c12 [Mercaptopurine] (top concentration 10000 nM)
Fulfilled

Is the recorded value of selective drug sensitivity score equal to or greater than 3 for this molecule? COc1cc2c(N3CCN(C(=O)Nc4ccc(OC(C)C)cc4)CC3)ncnc2cc1OCCCN1CCCCC1 [Tandutinib] (top concentration 1000 nM)
Not fulfilled

----------
Attribute: selective drug sensitivity score
- System: RPMI-8402
- PROCEDURE SUMMARY: selective drug sensitivity score (sDSS, relative to normal bone marrow) (sDSS (score)); higher = more potent and effective on the cell line relative to normal bone marrow cells
- DETAILS: 72 h
Note: the reply should be a number with no unit written.

Worked examples follow.
CC[C@]12C=CCN3CC[C@@]4(c5cc([C@@]6(C(=O)OC)C[C@@H]7C[C@@H](C(C)(F)F)CN(Cc8c6[nH]c6ccccc86)C7)c(OC)cc5N(C)[C@H]4[C@@](O)(C(=O)OC)[C@@H]1OC(C)=O)[C@@H]32 [Vinflunine] (top concentration 1000 nM)	4.78
Nc1nc(F)nc2c1ncn2[C@@H]1O[C@H](CO)[C@@H](O)[C@@H]1O [Fludarabine] (top concentration 10000 nM)	-3.6
O=C(Nc1cccc(Nc2ncc(Br)c(NCCc3cnc[nH]3)n2)c1)N1CCCC1 [BX-912] (top concentration 10000 nM)	3.36
O=c1[nH]c(C2CCCN2)nc2c1oc1ccc(Cl)cc12 (stereo unspecified) (top concentration 10000 nM)	6.2
Cn1nnc2c(C(N)=O)ncn2c1=O [Temozolomide] (top concentration 100000 nM)	1.46

Using the record for CC(C)c1c(C(=O)Nc2ccccc2)c(-c2ccccc2)c(-c2ccc(F)cc2)n1CC[C@@H](O)C[C@@H](O)CC(=O)O [Atorvastatin] (top concentration 10000 nM) , report its selective drug sensitivity score.
2.9

Give the measured selective drug sensitivity score of Cc1cc(-c2nc(-c3ccc(OC(F)(F)F)cc3)no2)nn1Cc1ccnc(N2CCN(C3CC3)CC2)c1 [BAY_87-2243] (top concentration 1000 nM) .
28

Name the recorded selective drug sensitivity score for CCN(CC)C(=S)SSC(=S)N(CC)CC [Disulfiram(+CuCl2)] (top concentration 50000 nM) .
-2.12

Bench note: what selective drug sensitivity score did CO[C@H]1C[C@@H]2CC[C@@H](C)[C@@](O)(O2)C(=O)C(=O)N2CCCC[C@H]2C(=O)O[C@H]([C@H](C)C[C@@H]2CC[C@@H](OP(C)(C)=O)[C@H](OC)C2)CC(=O)[C@H](C)/C=C(\C)[C@@H](O)[C@@H](OC)C(=O)[C@H](C)C[C@H](C)/C=C/C=C/C=C/1C [Ridaforolimus] (top concentration 100 nM) show?
-1.44

Any idea what selective drug sensitivity score was measured for CS(=O)(=O)CCNCc1ccc(-c2ccc3ncnc(Nc4ccc(OCc5cccc(F)c5)c(Cl)c4)c3c2)o1 [Lapatinib] (top concentration 1000 nM) ?
0

Could you tell me which selective drug sensitivity score is on file for Nc1nc(OCc2cc(Br)cs2)c2[nH]cnc2n1 [Lomeguatrib] (top concentration 10000 nM) ?
0

----------
- Test system: MOLT-4
- PROCEDURE SUMMARY: selective drug sensitivity score (sDSS, relative to normal bone marrow) (sDSS (score)); higher = more potent and effective on the cell line relative to normal bone marrow cells
- DETAILS: 72 h
OBSERVED PROPERTY: selective drug sensitivity score
# respond with the number and nothing more

Worked cases, answers included:
COc1cccc2c1C(=O)c1c(O)c3c(c(O)c1C2=O)C[C@@](O)(C(=O)CO)C[C@@H]3O[C@H]1C[C@H](N)[C@H](O)[C@H](C)O1 [Doxorubicin] (top concentration 1000 nM)	10.5
C[C@]12CC[C@H](O)CC1=CC[C@@H]1[C@@H]2CC[C@]2(C)C(c3cccnc3)=CC[C@@H]12 [Abiraterone] (top concentration 5000 nM)	-0.12
Cc1cc(Nc2ncc(Cl)c(Nc3ccccc3S(=O)(=O)C(C)C)n2)c(OC(C)C)cc1C1CCNCC1 [Ceritinib] (top concentration 2500 nM)	-3.44
Cc1cn(-c2cc(NC(=O)c3ccc(C)c(Nc4nccc(-c5cnccn5)n4)c3)cc(C(F)(F)F)c2)cn1 [Radotinib] (top concentration 10000 nM)	1.2
Nc1ncn([C@H]2C[C@H](O)[C@@H](CO)O2)c(=O)n1 [Decitabine] (top concentration 10000 nM)	-0.96

Here is another molecule to look at.
Report selective drug sensitivity score for COc1cc2c(cc1OCCCN1CCCC1)N=C(N)C21CCC1 [A-366] (top concentration 25000 nM) please.
1.36
